System: Cryptococcus neoformans
Conditions: Concentration 20 uM; ASSAY_TEST Inhibition of Fungal Growth; detection method Resazurin; Absorption (OD600-OD570); plate type 384well; NBS; CORNING #3640
Measured potencies and affinities stand elsewhere.
# Inhibition annotations

structure-notation	unit-abbrev	Inhibition
C[C@]12C[C@H](O)[C@H]3[C@@H](CCC4=CC(=O)CC[C@@]43C)[C@@H]1CC[C@@H]2C(=O)CO	%	-3.25
CC(=O)O[C@@]12CO[C@@H]1C[C@H](O)[C@@]1(C)C(=O)[C@H](O)C3=C(C)[C@@H](OC(=O)[C@H](O)[C@@H](NC(=O)OC(C)(C)C)c4ccccc4)C[C@](O)([C@@H](OC(=O)c4ccccc4)[C@H]21)C3(C)C	%	-6.01
CC(O)CO.N[C@@H](C(=O)N[C@@H]1C(=O)N2C(C(=O)O)=C(CSc3c[nH]nn3)CS[C@H]12)c1ccc(O)cc1	%	-40.25

----------
Reported Inhibition values are given for each entry in this list.
Test system: Klebsiella pneumoniae
Settings: Concentration 20 uM; ASSAY_TEST Inhibition of Bacterial Growth; detection method Absorption (OD600); MEDIA CAMHB; plate type 384well; NBS; CORNING #3640; time 18 hr
Entries with a potency or affinity are not part of this list.
result-type: Inhibition (%)

                                    compound  endpoint_result
 0  COc1ccc([C@@H]2Sc3ccccc3N(CCN(C)C)C(=O)[C@@H]2OC(C)=O)cc1.Cl [DILTIAZEM HYDROCHLORIDE]            11.57
 1  COc1cc(C(=O)NC2CCCNC2)cc(OC)c1OC (stereo not given) [TROXIPIDE]            14.93
 2  CC[C@H](C)C(=O)O[C@H]1C[C@H](O)C=C2C=C[C@H](C)[C@H](CC[C@@H](O)C[C@@H](O)CC(=O)[O-])[C@H]21.[Na+] [PRAVASTATIN SODIUM]            13.36
 3  CCOc1cc(N)c(Cl)cc1C(=O)NCC1CN(Cc2ccc(F)cc2)CCO1.O=C(O)CC(O)(CC(=O)O)C(=O)O (stereo not given) [MOSAPRIDE CITRATE]            16.24
 4  Cc1cccc(CCN2CCC(C(=O)c3ccc(NS(C)(=O)=O)cc3)CC2)n1.Cl.Cl             0.58
 5   COC(=O)Nc1nc2cc(C(=O)c3ccccc3)ccc2[nH]1            11.43
 6     CC(C)(S)C(N)C(=O)O (stereo not given)             8.23
 7            Oc1ccc(/C=C/c2cc(O)cc(O)c2)cc1            12.99
 8                           NCC(=O)CCC(=O)O            13.51
 9  CC1(C)S[C@@H]2[C@H](NC(=O)[C@H](N)c3ccc(O)cc3)C(=O)N2[C@H]1C(=O)O            10.29
10  CCc1c(C)[nH]c2c1C(=O)C(CN1CCOCC1)CC2.Cl (stereo not given) [MOLINDONE HYDROCHLORIDE]            -0.12
11  CC(C)[N+](C)(CCOC(=O)C1c2ccccc2Oc2ccccc21)C(C)C.[Br-] [PROPANTHELINE BROMIDE]            18.08
12  CC(Cc1ccccc1)(NC(=O)CN)c1ccccc1.Cl (stereo not given) [REMACEMIDE HYDROCHLORIDE]             8.63
13       Nc1ccn([C@@H]2CS[C@H](CO)O2)c(=O)n1            20.65
14  Cl.O.OC[C@H]1O[C@@H](n2cnc3c(N[C@H]4CCC[C@@H]4O)ncnc32)[C@@H](O)C1O (stereo not given in full)             8.61
15  COc1ccccc1OCCNCC(O)COc1cccc2[nH]c3ccccc3c12 (stereo not given)            14.17
16  O=C1CCc2ccc(OCCCCN3CCN(c4cccc(Cl)c4Cl)CC3)cc2N1              2.6
17  CN1CCN(CCCN2c3ccccc3Sc3ccc(C(F)(F)F)cc32)CC1.Cl.Cl [TRIFLUOPERAZINE HYDROCHLORIDE]            10.06
18  COc1cc2nc(N3CCN(C(=O)C4CCCO4)CC3)nc(N)c2cc1OC (stereo not given)              3.6
19   CSc1nc2cc(Cl)c(Oc3cccc(Cl)c3Cl)cc2[nH]1            -0.37
20  OCCN(CCO)c1nc(N2CCCCC2)c2nc(N(CCO)CCO)nc(N3CCCCC3)c2n1             2.81
21                     O=C1N[C@H](C(=O)O)CS1             8.75
22  CNCC(O)c1ccc(O)c(O)c1 (stereo not given) [RACEPINEPHRINE]            12.35
23                COc1ccc2cc(CCC(C)=O)ccc2c1             8.45
24  CN(C)CCC[C@@]1(c2ccc(F)cc2)OCc2cc(C#N)ccc21.O=C(O)C(=O)O [ESCITALOPRAM OXALATE]            13.63
25  CC(=O)O.CNC(=N)NCCC[C@H](N)C(=O)O [TILARGININE ACETATE]            -3.72
26  CN1CCCCC1CCN1c2ccccc2Sc2ccc([S+](C)[O-])cc21.O=S(=O)(O)c1ccccc1 (stereo not given) [MESORIDAZINE BESYLATE]            -1.64
27  COc1cc2nc(N(C)CCCNC(=O)C3CCCO3)nc(N)c2cc1OC (stereo not given)            -2.08
28  CC1Cc2ccccc2N1NC(=O)c1ccc(Cl)c(S(N)(=O)=O)c1 (stereo not given) [INDAPAMIDE]             9.63
29  CCC(=C(c1ccccc1)c1ccc(OCCN(C)C)cc1)c1ccccc1             0.16
30  CN1CC(=O)N2[C@H](c3ccc4c(c3)OCO4)c3[nH]c4ccccc4c3C[C@@H]2C1=O             2.98
31  Cl.O=C(NCC1CCCCN1)c1cc(OCC(F)(F)F)ccc1OCC(F)(F)F (stereo not given)             7.49
32  CC(N)(Cc1ccc(O)c(O)c1)C(=O)O (stereo not drawn) [METHYLDOPA (RACEMIC)]             2.57
33  NC(CO)(CO)CO.O=C(c1ccccc1)c1ccc2n1CCC2C(=O)O (stereo not given)             3.11
34  O=C(O[C@H]1[C@H](Oc2ccccc2COC(=O)C2(O)C=CCCC2=O)O[C@H](CO)[C@@H](O)[C@@H]1O)c1ccccc1 (stereo not given in full)             9.15
